- target-entity: telomerase enzyme (Homo sapiens, UniProt O14746)
- Sequence (O14746 whole entry): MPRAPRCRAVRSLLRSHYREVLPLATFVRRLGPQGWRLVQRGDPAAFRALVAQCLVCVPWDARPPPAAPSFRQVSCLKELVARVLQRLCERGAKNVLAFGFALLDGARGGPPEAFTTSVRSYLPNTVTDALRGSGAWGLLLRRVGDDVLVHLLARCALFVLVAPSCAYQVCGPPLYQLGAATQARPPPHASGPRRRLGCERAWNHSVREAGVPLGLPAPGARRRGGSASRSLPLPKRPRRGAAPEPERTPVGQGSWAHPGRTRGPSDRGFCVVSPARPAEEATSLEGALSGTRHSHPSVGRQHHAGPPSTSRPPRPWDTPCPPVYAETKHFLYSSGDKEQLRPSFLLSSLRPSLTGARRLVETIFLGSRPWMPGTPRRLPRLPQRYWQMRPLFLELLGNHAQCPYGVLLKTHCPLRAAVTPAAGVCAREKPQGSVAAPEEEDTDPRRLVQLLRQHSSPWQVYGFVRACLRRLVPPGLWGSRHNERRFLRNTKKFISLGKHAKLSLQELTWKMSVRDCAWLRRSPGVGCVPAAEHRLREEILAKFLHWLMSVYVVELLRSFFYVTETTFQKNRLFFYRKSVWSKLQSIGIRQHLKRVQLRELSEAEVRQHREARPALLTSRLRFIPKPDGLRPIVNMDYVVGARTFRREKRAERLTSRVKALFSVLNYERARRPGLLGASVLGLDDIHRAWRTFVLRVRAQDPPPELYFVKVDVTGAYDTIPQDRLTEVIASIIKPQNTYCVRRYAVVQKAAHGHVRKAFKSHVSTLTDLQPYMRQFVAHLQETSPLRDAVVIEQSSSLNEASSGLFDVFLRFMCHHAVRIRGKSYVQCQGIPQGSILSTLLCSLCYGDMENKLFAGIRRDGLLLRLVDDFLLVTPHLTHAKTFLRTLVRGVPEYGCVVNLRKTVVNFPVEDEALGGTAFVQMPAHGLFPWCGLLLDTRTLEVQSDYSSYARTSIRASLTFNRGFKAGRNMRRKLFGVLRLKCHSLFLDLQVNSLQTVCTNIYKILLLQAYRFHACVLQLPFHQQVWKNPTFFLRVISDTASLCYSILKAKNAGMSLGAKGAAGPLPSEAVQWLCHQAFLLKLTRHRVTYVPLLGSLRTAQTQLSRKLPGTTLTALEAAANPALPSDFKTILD
Listing of recorded IC50 by entry.
Write the number in µM without appending the unit.

Observe how each entry below is paired with its result.
| smiles-entry | result-units | IC50 |
| --- | --- | --- |
| Nc1nc2c(c(=O)[nH]1)[n+](Cc1ccc(-c3ccccc3)cc1)cn2Cc1ccc(-c2ccccc2)cc1 | µM | 3 |
| Nc1nc2c(c(=O)[nH]1)[n+](Cc1ccc3ccccc3c1)cn2Cc1ccc2ccccc2c1 | µM | 10 |

Next item in the queue.
Suppose we examine the molecule Nc1nc2c(c(=O)[nH]1)[n+](Cc1ccc(-c3ccccc3)cc1)cn2Cc1ccc2ccccc2c1 ; what IC50 value has been reported?
4
